The measured values listed here are drawn from patent US7875604B2.

System: fresh human PBMCs
Assay Remarks: MTS staining for PBMC viability to measure cytotoxicity
Assay type: cell-based
Condition Parameters: human, 7 days
Recorded CC50 values for a group of compounds are listed next.

Query Smiles	Measured Parameter	Observed Measurement
CCc1c(C)nc2sc(C(N)=O)c(N)c2c1C	CC50	> 37.6 µM

Attention now shifts to the item below.
Sample "Fc1ccc(Nc2ncnc3ccccc23)cc1Cl" , system: fresh human PBMCs. Its CC50 is > 40.8 µM

----------
System: HIV-1 NL4-3
Assay Remarks: Anti-HIV efficacy in fresh human PBMCs, reverse transcriptase readout, HIV-1 NL4-3
Format: cell-based
Condition Parameters: HIV-1 NL4-3, PBMCs
Listed next: entries and their corresponding TI (TC50/IC50).
Keep the answer to the number alone.

Worked cases, TI (TC50/IC50) given:
Query Smiles	Target Or System	Observed Measurement
COc1cccc(NC(=O)c2cc(Cl)nnc2Cl)c1	HIV-1 NL4-3	8.94
COc1ccc2cc3c(N)n[nH]c3nc2c1	HIV-1 NL4-3	14.90
COc1ccc2nc(C(F)(F)F)c(C#N)c(N)c2c1	HIV-1 NL4-3	23.91

Here is the next item to consider.
Value of measured TI (TC50/IC50) for the entry "CS(=O)(=O)c1ncc(-c2ccc(Br)cc2)cn1" : 1.95

----------
Test system: HIV-1 BR/93/021
Assay Remarks: Anti-HIV efficacy in fresh human PBMCs, reverse transcriptase readout, HIV-1 BR/93/021
Assay type: cell-based
Condition Parameters: HIV-1 BR/93/021, PBMCs
Measured Parameter: TI (TC50/IC50)
Give the figure by itself; no unit, no explanation.

Illustrative cases are given below, each with its answer.
Query Smiles	Target Or System	TI (TC50/IC50)
COc1ccc2cc3c(N)n[nH]c3nc2c1	HIV-1 BR/93/021	69.57
COc1cccc(NC(=O)c2cc(Cl)nnc2Cl)c1	HIV-1 BR/93/021	94.00
COc1ccc2nc(C(F)(F)F)c(C#N)c(N)c2c1	HIV-1 BR/93/021	38.91

Continue with the compound presented below.
# TI (TC50/IC50) (compound: "CS(=O)(=O)c1ncc(-c2ccc(Br)cc2)cn1" ) is 3.48

----------
Test system: fresh human PBMCs
Assay Remarks: MTS staining for PBMC viability to measure cytotoxicity
Assay type: cell-based
Measured Parameter: CC50

Measured CC50, Cc1cn([C@H]2C[C@H](N=[N+]=[N-])[C@@H](CO)O2)c(=O)[nH]c1=O [AZT, reference compound] : > 1000 nM

----------
Tested on: U1 cells
Assay Remarks: MTS staining for cell viability in U1 cell assay
Assay type: cell-based
Condition Parameters: analogs, Table 8, MTS, read-out: TC50 (the source's name)
Reported CC50 values are given for each entry in this list.

Query Smiles	CC50
N#Cc1ccc(NC(=O)c2sc(Cl)nc2-c2ccccc2)cc1	> 75 µM
COc1cc2cc(C(=O)Nc3ccccc3)c(N)nc2cc1OC	> 75 µM
O=C(Nc1ccccc1)c1sc(Cl)nc1C(F)(F)F	51.7 µM
NC(=O)c1sc2nc3c(cc2c1N)CCC3	> 75 µM

The molecule listed as "Cc1cc2c(N)c(C(N)=O)sc2nc1-c1ccc(F)cc1" has a reported CC50 of > 75 µM

Entry under test: "Cc1nc2sc(C(N)=O)c(N)c2c(C)c1CC(=O)c1ccccc1" . Its CC50 was > 75 µM

Briefly, CC50 measured for "NC(=O)c1sc2nc(-c3cccs3)cc(-c3ccc(F)cc3)c2c1N" : 17.4 µM

Reported CC50 for "CCOc1ccccc1Nc1nc(-c2ccc(C)cc2)nc2ccccc12" was > 75 µM

Summary for this molecule, "COCc1cc(C)nc2sc(C(N)=O)c(N)c12" : CC50 is > 75 µM

# CC50 of "O=C(c1cc(Cl)nnc1Cl)N1CCOCC1" = > 75 µM

----------
Each entry below lists one item and its recorded CC50 value.
Test system: U1 cells
Assay Remarks: MTS staining for cell viability in U1 cell assay
Format: cell-based
Condition Parameters: analogs, Table 8, MTS, read-out: TC50 (the source's name)

Query Smiles	CC50
CN1CCc2nc3sc(C(N)=O)c(N)c3cc2C1	> 37.5 µM
Cc1ccc(NC(=O)c2sc(Cl)nc2C)cc1	51.9 µM
Cc1nc(Oc2ccccc2)c2ccccc2n1	52 µM
O=C(Nc1ccccc1F)c1sc(Cl)nc1C(F)(F)F	51.2 µM

Entry "CCOC(=O)c1c2c(nc3sc(C(N)=O)c(N)c13)CCCC2" : CC50 on U1 cells = 65.8 µM

----------
Assay Remarks: MTS staining for PBMC viability to measure cytotoxicity
Format: cell-based, human
Condition Parameters: human, PBMC plates with HIV-1 BR/93/021, MTS; read-out: TC50
// values below are reported CC50 at 7 days
Express your answer in µM, writing the number without its unit.

Please review the following examples before continuing.
Query Smiles	CC50 at 7 days (µM)
COc1ccc2cc3c(N)n[nH]c3nc2c1	32.7
COc1ccc2nc(C(F)(F)F)c(C#N)c(N)c2c1	24.9
COc1cccc(NC(=O)c2cc(Cl)nnc2Cl)c1	18.8

# input for lookup
According to the records, this molecule "CS(=O)(=O)c1ncc(-c2ccc(Br)cc2)cn1" displays CC50 at 7 days of 6.26

----------
System: U1 cells
Assay Remarks: MTS staining for cell viability in U1 cell assay
Type: cell-based
Condition Parameters: analogs, Table 8, MTS, read-out: TC50 (the source's name)
Measured Parameter: CC50

Below: 8 compounds and their reported CC50.
Query Smiles	CC50
NC(=O)c1sc2nc(-c3cccs3)cc(C(F)(F)F)c2c1N	> 75 µM
COc1ccc(-c2cc(-c3ccc(OC)cc3)c3c(N)c(C(N)=O)sc3n2)cc1	38.3 µM
Oc1ccccc1-c1nc(Nc2ccc(F)c(F)c2)c2ccccc2n1	> 75 µM
O=C(Nc1cccc(F)c1)c1sc(Cl)nc1C(F)(F)F	50.7 µM
Cc1ccc(-c2cc(C(F)(F)F)c3c(N)c(C(N)=O)sc3n2)cc1	22.5 µM
Cc1nc(Cl)sc1C(=O)Nc1ccc(C(C)(C)C)cc1	> 75 µM
COc1ccc(-c2cnc(OC(C)(C)C)nc2OC(C)(C)C)cc1OC	> 75 µM
NC(=O)c1sc2nc3c(cc2c1N)CCCC3	> 75 µM

compound "CN(C)c1ccnc2sc(C(N)=O)c(N)c12" , CC50 observed: > 75 µM

----------
Target Or System: HIV-1 Rev (Human immunodeficiency virus type 1 group M subtype B, UniProt P04618)
Construct: expressed in transfected cells
Sequence (P04618 whole entry, looked up): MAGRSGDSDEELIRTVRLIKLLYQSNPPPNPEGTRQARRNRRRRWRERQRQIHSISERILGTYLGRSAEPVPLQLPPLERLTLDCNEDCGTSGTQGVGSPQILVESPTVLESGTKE
Assay Remarks: cell-based
Condition Parameters: Rev assay
Measured Parameter: TI (TC50/IC50)
Form rule: numeric answer, no unit written next to it.

Answered cases to consult:
Compound	TI (TC50/IC50)
CS(=O)(=O)c1ncc(-c2ccc(Br)cc2)cn1 [Compound 107129]	4.13
COc1ccc2cc3c(N)n[nH]c3nc2c1 [Compound 89246]	17.52
COc1ccc2nc(C(F)(F)F)c(C#N)c(N)c2c1 [Compound 104366]	7.68
COc1cccc(NC(=O)c2cc(Cl)nnc2Cl)c1 [Compound 107740]	2.31

Here is the next item to consider.
Record CCc1c(C(=O)Nc2ccccc2)c(C)nc2sc(C(N)=O)c(N)c12 [Compound 75168] , field TI (TC50/IC50): 3.27

----------
The following molecules are listed with their measured CC50 at 3 days values.
Assay Remarks: MTS staining for cell viability in U1 cell assay
Assay type: cell-based
Condition Parameters: human, U1 cells stimulated with TNF-α, Table 6, MTS, read-out: TC50

Given item "COc1ccc2nc(C(F)(F)F)c(C#N)c(N)c2c1" , the value recorded as its CC50 at 3 days is 12.4 µM

Looking up "CS(=O)(=O)c1ncc(-c2ccc(Br)cc2)cn1" , I found its CC50 at 3 days recorded as > 53 µM

// O=c1c2ccccc2n2nnc3ccc(NCCCN4CCN(CCCNc5ccc6nnn7c8ccccc8c(=O)c5c67)CC4)c1c32 [Temacrazine, reference compound] : CC50 at 3 days value = > 0.5 µM

Quick note, CC50 at 3 days for "CCc1c(C)nc2sc(C(N)=O)c(N)c2c1C" landed at > 37.6 µM

Measured CC50 at 3 days of "Fc1ccc(Nc2ncnc3ccccc23)cc1Cl" : > 40.8 µM

Record "COc1cccc(NC(=O)c2cc(Cl)nnc2Cl)c1" . Reported CC50 at 3 days: > 29.3 µM

The reported value for "COc1ccc2cc3c(N)n[nH]c3nc2c1" in terms of CC50 at 3 days is 24.6 µM

----------
# CC50 at 7 days listing for each entry below
Assay Remarks: MTS staining for PBMC viability to measure cytotoxicity
Type: cell-based, human
Condition Parameters: human, PBMC plates with HIV-1 NL4-3, MTS; read-out: TC50
Field format: number, assumed µM, no unit text.

Known results for compounds:
Query Smiles	CC50 at 7 days / µM
COc1cccc(NC(=O)c2cc(Cl)nnc2Cl)c1	14.4
COc1ccc2nc(C(F)(F)F)c(C#N)c(N)c2c1	22
COc1ccc2cc3c(N)n[nH]c3nc2c1	21.9

Please find the next compound below.
Noted for "CS(=O)(=O)c1ncc(-c2ccc(Br)cc2)cn1" : its CC50 at 7 days reads 4.13
